Measured protein stability index accompanies every entry in the list below.
Test system: Saccharomyces cerevisiae
protocolDescription: protein stability index of tFT-peptide fusion (C-terminal peptide) (PSI (0-1 scale)); higher = more stable (slower turnover)
cond: genetic background: cdc34-1; temperature: 37 C
Form field (numeric): enter value without unit.

Answer with the recorded protein stability index of "GLRLRCPLLLSL" only. 0.354

Answer with the recorded protein stability index of "LCAFLKLFILII" only. 0.0906

Answer with the recorded protein stability index of "WGFLSVVCLSGV" only. 0.501

Answer with the recorded protein stability index of "SDGGVVRGGCRG" only. 0.592

Answer with the recorded protein stability index of "LFLLFLCLSSLF" only. 0.561

Answer with the recorded protein stability index of "IGWGGGTWVKMG" only. 0.544

Answer with the recorded protein stability index of "KFKRLTKFYARQ" only. 0.555

Answer with the recorded protein stability index of "CFSIPLVILNVL" only. 0.468

* * *

System: Saccharomyces cerevisiae
protocolDescription: protein stability index of tFT-peptide fusion (C-terminal peptide) (PSI (0-1 scale)); higher = more stable (slower turnover)
cond: genetic background: wild type; temperature: 30 C
attributeMeasured: protein stability index

[[record]]
itemsequence = "PPSAPPLPPLPL"
testedtarget = "Saccharomyces cerevisiae"
attributemeasured = "protein stability index"
valueobserved = 0.69

[[record]]
itemsequence = "SNWLMTYIIRRK"
testedtarget = "Saccharomyces cerevisiae"
attributemeasured = "protein stability index"
valueobserved = 0.641

[[record]]
itemsequence = "DDQLACSHDIDS"
testedtarget = "Saccharomyces cerevisiae"
attributemeasured = "protein stability index"
valueobserved = 0.643

[[record]]
itemsequence = "GGRTEYILQLKK"
testedtarget = "Saccharomyces cerevisiae"
attributemeasured = "protein stability index"
valueobserved = 0.686

[[record]]
itemsequence = "GCAITVKRLWFG"
testedtarget = "Saccharomyces cerevisiae"
attributemeasured = "protein stability index"
valueobserved = 0.656

[[record]]
itemsequence = "DRASLAGPRSLP"
testedtarget = "Saccharomyces cerevisiae"
attributemeasured = "protein stability index"
valueobserved = 0.692


Answer with the recorded protein stability index of "DSVYYVYRSTRV" only. 0.679

Answer with the recorded protein stability index of "WYGPKLVGGSIV" only. 0.722

Answer with the recorded protein stability index of "LLSGPPVPPSWS" only. 0.653

Answer with the recorded protein stability index of "LCSSSLRPFFPE" only. 0.754

Answer with the recorded protein stability index of "WGWPHQRDGFLG" only. 0.66

Answer with the recorded protein stability index of "PPLPLPPLALTR" only. 0.722

Answer with the recorded protein stability index of "LFSSFFVFRLLV" only. 0.146

Answer with the recorded protein stability index of "SLIFVSLLGAYD" only. 0.623

Answer with the recorded protein stability index of "GWMSGTPEFLGS" only. 0.707

Answer with the recorded protein stability index of "RVWNRHWMGASS" only. 0.776

Answer with the recorded protein stability index of "LGVALARCLWGT" only. 0.677

* * *

System: Saccharomyces cerevisiae
protocolDescription: protein stability index of tFT-peptide fusion (C-terminal peptide) (PSI (0-1 scale)); higher = more stable (slower turnover)
cond: genetic background: wild type; temperature: 30 C
T means recorded protein stability index is 0.7 or above; F means it is below 0.7.

Illustrative cases are given below, each with its answer.
[[record]]
itemsequence = "VVLSYSMVGSVM [MAY24 C-terminal 12 aa]"
label = "F"

[[record]]
itemsequence = "GCVKMYKFDLND [MET30 C-terminal 12 aa]"
label = "T"

[[record]]
itemsequence = "IFVYPLFLLSTF [YEL053W-A C-terminal 12 aa]"
label = "F"

[[record]]
itemsequence = "SIIFLLLSYLLF [SAG1 C-terminal 12 aa]"
label = "F"

[[record]]
itemsequence = "QDKRSSQAIDVL [MMS21 C-terminal 12 aa]"
label = "F"

[[record]]
itemsequence = "VWNTFYKLGKRV [TMT1 C-terminal 12 aa]"
label = "F"

[[record]]
itemsequence = "SLIPRFDNLLSK [GGC1 C-terminal 12 aa]"
label = "T"

[[record]]
itemsequence = "LSKRRTRLINFN [PXL1 C-terminal 12 aa]"
label = "F"


In plain terms: is recorded protein stability index at least 0.7 for VLGFFKRRSMKI [FRK1 C-terminal 12 aa] ? F

In plain terms: is recorded protein stability index at least 0.7 for SSNFASNIFSLF [YBR089W C-terminal 12 aa] ? F

In plain terms: is recorded protein stability index at least 0.7 for VVVCRLHFSLPV [YKL111C C-terminal 12 aa] ? F

In plain terms: is recorded protein stability index at least 0.7 for AFKKAQAEKSKK [NOP12 C-terminal 12 aa] ? T

Where these numbers come from: the supplement of paper PMC10724198
